SYSTEM NAME: T1, human tankyrase 2 ankyrin repeat cluster 4 (TNKS2 ARC4, residues 488-649) (human, UniProt Q9H2K2 488-649)
T1 sequence (looked up): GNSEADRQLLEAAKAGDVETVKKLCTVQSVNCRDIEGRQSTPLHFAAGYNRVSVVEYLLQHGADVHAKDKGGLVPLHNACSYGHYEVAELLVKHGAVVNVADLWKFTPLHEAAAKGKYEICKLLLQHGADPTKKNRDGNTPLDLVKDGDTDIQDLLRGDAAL
ASSAY INFO: ITC; TNKS2 ARC4 (160-280 uM) or TNKS1 ARC2-3 (60-150 uM) titrated into the cell with unlabeled peptide (5-15 uM) or Axin1 fragment (8-12 uM); PBS, 0.5 mM TCEP; 25 C; one-site model; stoichiometry = TNKS per peptide or Axin1
EXPERIMENTAL PARAMETERS: both partners purified
Bridge positions count the residues as written; N and C are the ends. Square brackets hold non-standard residues; d marks the D form. Aha = [N-]=[N+]=NCC[C@H](N)C(=O)O; m3 = not defined here
I'd be grateful if you could share measured Kd for these entries.
Answer format: numeric, nM implied, no suffix.

Which Kd value is on record for human Axin1 residues 1-80 (domain or fragment, UniProt O15169 1-80, looked up) MNIQEQGFPLDLGASFTEDAPRPPVPGEEGELVSTDPRPASYSFCSGKGVGIKGETSTATPRRSDLDLGYEPEGSASPTP ?
2620

Which Kd value is on record for MNIQEQGFPLDLGASFTEDAPRPPVPGEEGELVSTDPRPASYS (domain or fragment, UniProt O15169 1-43, looked up) [human Axin1 residues 1-43] ?
2120

Which Kd value is on record for Ac-REAGDGEE-NH2 [pep1 (unlabeled linear consensus peptide Ac-REAGDGEE)] ?
1180

Which Kd value is on record for Ac-RE[Aha]GDG[Aha]E-NH2 (bridge 3-7; not fully specified (bridges)) [cp4n2m3c (unlabeled)] ?
640

Which Kd value is on record for Ac-RE[Aha]GDG[Aha]E-NH2 (triazole 3-7 via m3; reading uncertain) [cp4n2m3 (unlabeled)] ?
890
